assay: Clearance in rat after iv administration; format: ADME, organism-based; details: in vivo
Measured Attribute: clearance (mL/min/kg)
Response body: numeric value in mL/min/kg, unit text excluded.

// clearance value for O=c1ccc2ccccc2o1 : 20

// clearance value for CO/N=C(\C(=O)N[C@@H]1C(=O)N2C(C(=O)O)=CCS[C@H]12)c1csc(N)n1 : 19

// clearance value for CN(C)C(=O)CCSC(SCCC(=O)O)c1cccc(/C=C/c2ccc3ccc(Cl)cc3n2)c1 (centres undefined) : 37

// clearance value for C#C[C@]1(O)CC[C@H]2[C@@H]3CCc4cc(O)ccc4[C@H]3[C@@H](OC)C[C@@]21C : 52

// clearance value for CCC1(C)CC(=O)NC1=O (centres undefined) [ETHOSUXIMIDE] : 3.1

// clearance value for C[C@]12C=CC(=O)C=C1CC[C@@H]1[C@@H]2C(=O)C[C@@]2(C)[C@H]1CC[C@]2(O)C(=O)CO : 163

// clearance value for CC[C@]1(O)C[C@H]2CN(CCc3c([nH]c4ccccc34)[C@@](C(=O)OC)(c3cc4c(cc3OC)N(C=O)[C@H]3[C@@](O)(C(=O)OC)[C@H](OC(C)=O)[C@]5(CC)C=CCN6CC[C@]43[C@@H]65)C2)C1 : 2

// clearance value for CC#CCC(C)[C@H](O)/C=C/[C@@H]1[C@H]2C/C(=C/CCCC(=O)O)C[C@H]2C[C@H]1O (some centres undefined) : 32

// clearance value for C#CCCCC(=O)c1cc(C(C)(C)C)c(O)c(C(C)(C)C)c1 : 42
